Provide the recorded Population Mitochondria Different-Phenotype (%) for the entries that follow.
Test system: Fibroblast
Test Summary: Multiplex assay against human fibroblast
Type: toxicity, cell-based
Condition Parameters: 24 h, 1 µM, compound concentration 1 uM, replicate 1
Respond with the bare value in %.

Summary for this molecule, `C[C@H](NC(=O)c1c(C(F)F)nn(C)c1Oc1cccc(C(F)(F)F)c1)c1ccc(C(=O)O)cc1` : Population Mitochondria Different-Phenotype (%) is 4

Summary for this molecule, CCCN1CCC[C@@H]2Cc3n[nH]cc3C[C@H]21.Cl [QUINPIROLE HYDROCHLORIDE] : Population Mitochondria Different-Phenotype (%) is 2

Summary for this molecule, `COc1c(C)cc(NC(=O)c2nn(Cc3ccc(F)cc3)c3c2CN(C(=O)c2ccc[nH]2)C[C@]3(C)C(N)=O)cc1C` : Population Mitochondria Different-Phenotype (%) is 17

Summary for this molecule, Cl.Clc1ccc2nsnc2c1NC1=NCCN1 [TIZANIDINE HYDROCHLORIDE] : Population Mitochondria Different-Phenotype (%) is 0

Summary for this molecule, `O=C(NCC(=O)N1CC[C@H](N[C@H]2CC[C@@](O)(c3ccc(-c4ncccn4)cn3)CC2)C1)c1cccc(C(F)(F)F)c1` : Population Mitochondria Different-Phenotype (%) is 4

Summary for this molecule, `O=C1COc2nccc(-c3ccccc3F)c2CN1Cc1cc(C(F)(F)F)cc(C(F)(F)F)c1` : Population Mitochondria Different-Phenotype (%) is 6

Summary for this molecule, `C[C@@H]1C[C@H]2[C@@H]3CCC4=CC(=O)C=C[C@]4(C)[C@@]3(F)[C@@H](O)C[C@]2(C)[C@@]1(O)C(=O)CO` : Population Mitochondria Different-Phenotype (%) is 3

###

Tested on: HEK-293T
Test Summary: Multiplex assay against HEK293T
Assay type: toxicity, cell-based
Condition Parameters: human, 48 h, 1 µM, compound concentration 1 uM, replicate 1
Metric Name: Total Cell Count
Number only, no unit.

Summary for this compound, `CC1(COc2ccc3c(c2)ncn3-c2ccc3cccc(N4CCC(N)CC4)c3n2)COC1` : Total Cell Count is 844

Summary for this compound, `N#Cc1c(N)nc(SCc2csc(-c3ccc(Cl)cc3)n2)c(C#N)c1-c1ccc(OCCO)cc1` : Total Cell Count is 621

Summary for this compound, `C[C@H](NC(=O)c1c(C(F)F)nn(C)c1Oc1cccc(C(F)(F)F)c1)c1ccc(C(=O)O)cc1` : Total Cell Count is 916

Summary for this compound, Cc1ccccc1C(=O)Nc1ccc(C(=O)N2CCCC(N(C)C)c3ccccc32)cc1.Cl (centres undefined) : Total Cell Count is 1095

Summary for this compound, `N[C@@]1(C(=O)O)CO[C@H]2[C@H](C(=O)O)[C@H]21` : Total Cell Count is 866

Summary for this compound, `O=C1COc2nccc(-c3ccccc3F)c2CN1Cc1cc(C(F)(F)F)cc(C(F)(F)F)c1` : Total Cell Count is 743

Summary for this compound, `COc1ccccc1N1CCN(CCCCNC(=O)c2ccc3ccccc3c2)CC1.Cl` : Total Cell Count is 841

Summary for this compound, Cc1ccc(C(C)(O)c2nc3ccccc3s2)c(C)c1 (centres undefined) : Total Cell Count is 964

Summary for this compound, `CC(=O)NCCc1c(Cc2ccccc2)[nH]c2ccccc12` : Total Cell Count is 965

###

Tested on: U2OS
Test Summary: Multiplex assay against U2OS
Type: toxicity, cell-based
Condition Parameters: human, 48 h, 10 µM, compound concentration 10 uM, replicate 1
# label = 1 if Population Hoechst High Intensity Objects (%) < 2% else -1

Query: Population Hoechst High Intensity Objects (%) strictly < 2% for this molecule? `COc1cc(C(=O)N(CCCc2ccccc2)Cc2ccc(CC(=O)O)cc2)cc(OC)c1C`
Response: 1

Query: Population Hoechst High Intensity Objects (%) strictly < 2% for this molecule? `CC(C)(C)c1ccc(S(=O)(=O)Nc2ccc(Cl)cc2C(=O)c2cc[n+]([O-])cc2)cc1`
Response: 1

Query: Population Hoechst High Intensity Objects (%) strictly < 2% for this molecule? CSc1ccccc1N1CCN(CCCCCC(=O)NC2CCCc3ccccc32)CC1.Cl (stereo unspecified)
Response: -1

Query: Population Hoechst High Intensity Objects (%) strictly < 2% for this molecule? `CC[C@H]1OC(=O)[C@H](C)[C@@H](O[C@H]2C[C@@](C)(OC)[C@@H](O)[C@H](C)O2)[C@H](C)[C@@H](O[C@@H]2O[C@H](C)C[C@H](N(C)C)[C@H]2O)[C@@]2(C)CC(C)=C(O2)[C@H](C)[C@@H](O)[C@]1(C)O`
Response: -1

Query: Population Hoechst High Intensity Objects (%) strictly < 2% for this molecule? Cc1ccccc1C(=O)Nc1ccc(C(=O)N2CCCC(N(C)C)c3ccccc32)cc1.Cl (stereo unspecified)
Response: -1

Query: Population Hoechst High Intensity Objects (%) strictly < 2% for this molecule? `O=C1COc2nccc(-c3ccccc3F)c2CN1Cc1cc(C(F)(F)F)cc(C(F)(F)F)c1`
Response: -1

Query: Population Hoechst High Intensity Objects (%) strictly < 2% for this molecule? `C[C@H]1[C@H]2CC[C@H]3[C@@H]4CC=C5C[C@@H](N(C)C)CC[C@]5(C)[C@H]4CC[C@]23CN1C`
Response: 1

###

Test system: Fibroblast
Test Summary: Multiplex assay against human fibroblast
Type: toxicity, cell-based
Condition Parameters: 48 h, 10 µM, compound concentration 10 uM, replicate 1
Metric Name: Population Tubulin-Different-Phenotype (%)
Answer with the figure and its unit, nothing else.

Summary for this molecule, c1cc(OCCCN2CCCCC2)ccc1CN1CCCCC1 [JNJ-5207852] : Population Tubulin-Different-Phenotype (%) is 34%

Summary for this molecule, CNC[C@H](O)c1ccc(O)c(O)c1 [EPINEPHRINE] : Population Tubulin-Different-Phenotype (%) is 32%

Summary for this molecule, CCNC1(C(N)=O)CCN(c2ncnc3c2nc(-c2ccccc2Cl)n3-c2ccc(Cl)cc2)CC1 [OTENABANT] : Population Tubulin-Different-Phenotype (%) is 92%

Summary for this molecule, O=C(O)Cc1ccccc1Nc1c(Cl)cccc1Cl [DICLOFENAC] : Population Tubulin-Different-Phenotype (%) is 28%

Summary for this molecule, CN1CCN2c3ncccc3Cc3ccccc3C2C1 (stereo unspecified) [MIRTAZAPINE] : Population Tubulin-Different-Phenotype (%) is 36%

Summary for this molecule, `CN(C)CCCc1cc(C(=O)Nc2ccc(-c3ccncc3)cc2)ccc1O.Cl.Cl` : Population Tubulin-Different-Phenotype (%) is 48%

###

Test system: Fibroblast
Test Summary: Multiplex assay against human fibroblast
Assay type: toxicity, cell-based
Condition Parameters: 48 h, 1 µM, compound concentration 1 uM, replicate 1
Mark not satisfied for Population Healthy Nuclei (%) values under 70%, and satisfied for everything at or above.

Query: Hi team, for `N#Cc1c(N)nc(SCc2csc(-c3ccc(Cl)cc3)n2)c(C#N)c1-c1ccc(OCCO)cc1` , is the recorded Population Healthy Nuclei (%) at or above 70%?
Response: satisfied

Query: Hi team, for CSc1ccccc1N1CCN(CCCCCC(=O)NC2CCCc3ccccc32)CC1.Cl (stereo unspecified) , is the recorded Population Healthy Nuclei (%) at or above 70%?
Response: not satisfied

Query: Hi team, for CNC[C@H](O)c1ccc(O)c(O)c1 [EPINEPHRINE] , is the recorded Population Healthy Nuclei (%) at or above 70%?
Response: not satisfied

Query: Hi team, for `Cc1nc2ccc(Oc3ccc(F)cc3)cc2c(=O)n1C[C@H]1CCCN(C(C)C)C1.Cl` , is the recorded Population Healthy Nuclei (%) at or above 70%?
Response: not satisfied

Query: Hi team, for `Cc1ccc(/C(=C\CN2CCCC2)c2ccccn2)cc1` , is the recorded Population Healthy Nuclei (%) at or above 70%?
Response: not satisfied

Query: Hi team, for `CN1CCN(c2nc3cc(C(F)(F)F)ccc3n3cccc23)CC1.O=C(O)/C=C\C(=O)O.O=C(O)/C=C\C(=O)O` , is the recorded Population Healthy Nuclei (%) at or above 70%?
Response: not satisfied

Query: Hi team, for `O=C1COc2nccc(-c3ccccc3F)c2CN1Cc1cc(C(F)(F)F)cc(C(F)(F)F)c1` , is the recorded Population Healthy Nuclei (%) at or above 70%?
Response: satisfied

Query: Hi team, for `O=C(NCCO)c1cccc(-c2cc(Nc3ccc(OC(F)(F)F)cc3)ncn2)c1` , is the recorded Population Healthy Nuclei (%) at or above 70%?
Response: not satisfied

Query: Hi team, for `COc1cc(NC(=O)CCN2CCC(OC(=O)Nc3ccccc3-c3ccccc3)CC2)c(Cl)cc1CNC[C@H](O)c1ccc(O)c2[nH]c(=O)ccc12` , is the recorded Population Healthy Nuclei (%) at or above 70%?
Response: not satisfied

Query: Hi team, for CN1CCN2c3ncccc3Cc3ccccc3C2C1 (stereo unspecified) , is the recorded Population Healthy Nuclei (%) at or above 70%?
Response: satisfied

Query: Hi team, for `Oc1c(CN2CCN(c3ccccn3)CC2)cc(Cl)c2cccnc12` , is the recorded Population Healthy Nuclei (%) at or above 70%?
Response: not satisfied

Query: Hi team, for `CCOc1c2c(c(OCC)c3ncccc13)CN(c1ccc(CS(=O)(=O)NC(=O)Cc3ccccc3OC)cc1C)C2=O` , is the recorded Population Healthy Nuclei (%) at or above 70%?
Response: not satisfied

Query: Hi team, for `CC1(COc2ccc3c(c2)ncn3-c2ccc3cccc(N4CCC(N)CC4)c3n2)COC1` , is the recorded Population Healthy Nuclei (%) at or above 70%?
Response: not satisfied

Query: Hi team, for `O=C(O)Cc1ccccc1Nc1c(Cl)cccc1Cl` , is the recorded Population Healthy Nuclei (%) at or above 70%?
Response: not satisfied

Query: Hi team, for Cc1ccccc1C(=O)Nc1ccc(C(=O)N2CCCC(N(C)C)c3ccccc32)cc1.Cl (stereo unspecified) , is the recorded Population Healthy Nuclei (%) at or above 70%?
Response: satisfied

Query: Hi team, for `O=C(NCC(=O)N1CC[C@H](N[C@H]2CC[C@@](O)(c3ccc(-c4ncccn4)cn3)CC2)C1)c1cccc(C(F)(F)F)c1` , is the recorded Population Healthy Nuclei (%) at or above 70%?
Response: not satisfied

Query: Hi team, for `C[C@@H]1C[C@H]2[C@@H]3CCC4=CC(=O)C=C[C@]4(C)[C@@]3(F)[C@@H](O)C[C@]2(C)[C@@]1(O)C(=O)CO` , is the recorded Population Healthy Nuclei (%) at or above 70%?
Response: not satisfied

Query: Hi team, for `O=C(O)c1cc2ccccc2c(Cc2c(O)c(C(=O)O)cc3ccccc23)c1O` , is the recorded Population Healthy Nuclei (%) at or above 70%?
Response: satisfied

Query: Hi team, for Cc1ccc(C(C)(O)c2nc3ccccc3s2)c(C)c1 (stereo unspecified) , is the recorded Population Healthy Nuclei (%) at or above 70%?
Response: satisfied

Query: Hi team, for `C[C@H](NC(=O)c1c(C(F)F)nn(C)c1Oc1cccc(C(F)(F)F)c1)c1ccc(C(=O)O)cc1` , is the recorded Population Healthy Nuclei (%) at or above 70%?
Response: not satisfied

Query: Hi team, for `CN(C)CCCc1cc(C(=O)Nc2ccc(-c3ccncc3)cc2)ccc1O.Cl.Cl` , is the recorded Population Healthy Nuclei (%) at or above 70%?
Response: not satisfied

Query: Hi team, for COc1ccc2c(c1)C(C(=O)N(Cc1ccc(N(C)C)cc1)c1ccc(C(C)C)cc1)CCC2.Cl (stereo unspecified) , is the recorded Population Healthy Nuclei (%) at or above 70%?
Response: satisfied

Query: Hi team, for `COc1c(C)cc(NC(=O)c2nn(Cc3ccc(F)cc3)c3c2CN(C(=O)c2ccc[nH]2)C[C@]3(C)C(N)=O)cc1C` , is the recorded Population Healthy Nuclei (%) at or above 70%?
Response: not satisfied

Query: Hi team, for `CCCC(CCC)C(=O)O` , is the recorded Population Healthy Nuclei (%) at or above 70%?
Response: not satisfied

Query: Hi team, for `CC(C)(C)c1ccc(S(=O)(=O)Nc2ccc(Cl)cc2C(=O)c2cc[n+]([O-])cc2)cc1` , is the recorded Population Healthy Nuclei (%) at or above 70%?
Response: not satisfied

Query: Hi team, for `c1cc(OCCCN2CCCCC2)ccc1CN1CCCCC1` , is the recorded Population Healthy Nuclei (%) at or above 70%?
Response: not satisfied

Query: Hi team, for CCCN1CCC[C@@H]2Cc3n[nH]cc3C[C@H]21.Cl [QUINPIROLE HYDROCHLORIDE] , is the recorded Population Healthy Nuclei (%) at or above 70%?
Response: not satisfied

Data provenance is ChEMBL document CHEMBL5058577.
